# systemTested: Factor X (FX), P00742
# Sequence (P00742 whole entry, looked up): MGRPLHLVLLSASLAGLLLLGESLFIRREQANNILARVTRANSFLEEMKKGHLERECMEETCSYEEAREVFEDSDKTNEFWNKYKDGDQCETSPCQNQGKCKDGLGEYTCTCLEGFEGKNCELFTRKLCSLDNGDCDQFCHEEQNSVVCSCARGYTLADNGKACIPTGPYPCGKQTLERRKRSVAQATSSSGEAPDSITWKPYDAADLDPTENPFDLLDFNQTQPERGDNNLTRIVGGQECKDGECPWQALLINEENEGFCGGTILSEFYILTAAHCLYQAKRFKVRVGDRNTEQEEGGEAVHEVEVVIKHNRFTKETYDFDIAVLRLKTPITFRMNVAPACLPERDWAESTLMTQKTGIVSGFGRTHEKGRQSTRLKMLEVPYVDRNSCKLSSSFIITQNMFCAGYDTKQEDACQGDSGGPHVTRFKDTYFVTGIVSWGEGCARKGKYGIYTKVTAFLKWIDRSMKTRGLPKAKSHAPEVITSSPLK
valueKind: kcat of FX activation by FIXa (Xase complex with FVIIIa, PC/PS vesicles, Ca2+) (s⁻¹)
Give bare numbers, in s⁻¹.

A selection of reference data follows.
FIXa-R318Y/R338E/T343R/R403E/E410N (protein) chain 1: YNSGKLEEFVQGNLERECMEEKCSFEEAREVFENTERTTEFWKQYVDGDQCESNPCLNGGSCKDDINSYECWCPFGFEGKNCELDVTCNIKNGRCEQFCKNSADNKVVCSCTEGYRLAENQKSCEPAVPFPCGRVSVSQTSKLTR chain 2: VVGGEDAKPGQFPWQVVLNGKVDAFCGGSIVNEKWIVTAAHCVETGVKITVVAGEHNIEETEHTEQKRNVIRIIPHHNYNAAINKYNHDIALLELDEPLVLNSYVTPICIADKEYTNIFLKFGSGYVSGWGRVFHKGYSALVLQYLRVPLVDRATCLESTKFRIYNNMFCAGFHEGGRDSCQGDSGGPHVTEVEGTSFLTGIISWGEECAMKGKYGIYTKVSEYVNWIKNKTKLT ... 9.7
FIXa-R318Y/R338E/Y345A/N346D/R403E/E410N (protein) chain 1: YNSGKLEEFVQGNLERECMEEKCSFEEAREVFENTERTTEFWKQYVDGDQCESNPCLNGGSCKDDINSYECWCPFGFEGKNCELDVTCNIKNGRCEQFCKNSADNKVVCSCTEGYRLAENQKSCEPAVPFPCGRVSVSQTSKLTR chain 2: VVGGEDAKPGQFPWQVVLNGKVDAFCGGSIVNEKWIVTAAHCVETGVKITVVAGEHNIEETEHTEQKRNVIRIIPHHNYNAAINKYNHDIALLELDEPLVLNSYVTPICIADKEYTNIFLKFGSGYVSGWGRVFHKGYSALVLQYLRVPLVDRATCLESTKFTIADNMFCAGFHEGGRDSCQGDSGGPHVTEVEGTSFLTGIISWGEECAMKGKYGIYTKVSEYVNWIKNKTKLT ... 1.2

Prompt line: Given the protein FIXa-R318Y/R338E/N346Y/R403E/E410N (protein) chain 1: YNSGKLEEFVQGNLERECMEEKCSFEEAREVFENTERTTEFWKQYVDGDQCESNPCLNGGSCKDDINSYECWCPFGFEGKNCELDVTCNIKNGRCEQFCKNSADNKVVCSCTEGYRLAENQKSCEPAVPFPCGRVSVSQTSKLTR chain 2: VVGGEDAKPGQFPWQVVLNGKVDAFCGGSIVNEKWIVTAAHCVETGVKITVVAGEHNIEETEHTEQKRNVIRIIPHHNYNAAINKYNHDIALLELDEPLVLNSYVTPICIADKEYTNIFLKFGSGYVSGWGRVFHKGYSALVLQYLRVPLVDRATCLESTKFTIYYNMFCAGFHEGGRDSCQGDSGGPHVTEVEGTSFLTGIISWGEECAMKGKYGIYTKVSEYVNWIKNKTKLT , what is its reported kcat of FX activation by FIXa (Xase complex with FVIIIa, PC/PS vesicles, Ca2+)?
Response line: 3.4
